System: MDA-MB-468
assay-method-text: normalised response (% of control), CellTiter-Glo; higher = more viable cells (100 = DMSO, 0 = benzethonium chloride kill control)
condition-summary: incubation time: 72 h
recorded-endpoint: normalised response (%)
Write it as a number; the unit % goes unstated.

Example entries begin here.
## Input What normalised response value was documented for this compound, CC/C(=C(\c1ccccc1)c1ccc(OCCN(C)C)cc1)c1ccccc1 [Tamoxifen] (10000 nM) ?
## Output 77

## Input What measured normalised response goes with O=NN(CCCl)C(=O)NC1CCCCC1 [Lomustine] (10000 nM) ?
## Output 101

## Input State the recorded normalised response for this entry: NC(=O)NO [Hydroxyurea] (100000 nM)
## Output 102

## Input Name the reported normalised response value associated with the compound COc1cc2c(Oc3ccc(NC(=O)C4(C(=O)Nc5ccc(F)cc5)CC4)cc3F)ccnc2cc1OCCCN1CCOCC1 [Foretinib] (1000 nM)
## Output 34.1

## Input Can you share its normalised response? I mean this compound: CC(C)n1nc(-c2ccc3oc(N)nc3c2)c2c(N)ncnc21 [INK128] (1000 nM)
## Output 18.7

Others:
## Input Please give the measured normalised response for this compound: CCCCCOC(=O)Nc1nc(=O)n([C@@H]2O[C@H](C)[C@@H](O)[C@H]2O)cc1F [Capecitabine] (10000 nM)
## Output 104

## Input So what does the record say about normalised response for Cc1cc2c(F)c(Oc3ncnn4cc(OC[C@@H](C)O)c(C)c34)ccc2[nH]1 [Brivanib] (1000 nM) ?
## Output 107

## Input Recorded normalised response of CO[C@H](C(=O)[C@@H](O)[C@@H](C)O)[C@@H]1Cc2cc3cc(O[C@H]4C[C@@H](O[C@@H]5C[C@@H](O)[C@H](O)[C@@H](C)O5)[C@H](O)[C@@H](C)O4)c(C)c(O)c3c(O)c2C(=O)[C@H]1O[C@H]1C[C@@H](O[C@@H]2C[C@@H](O)[C@@H](O[C@@H]3C[C@](C)(O)[C@H](O)[C@@H](C)O3)[C@@H](C)O2)[C@H](O)[C@@H](C)O1 [Plicamycin] (10000 nM) , please.
## Output 4.44

// data source = the supplement of paper PMC4862054
